Please respond with reported activity at 100 µM for every item in the list.
Test system: M. mycetomatis genome strain MM55
Experiment: CLSI M38-A2 based in vitro susceptibility screening (XTT or resazurin), growth at fixed concentration
Assay type: cell-based, Madurella mycetomatis
Settings: Madurella mycetomatis, 100 uM, first replicate column; read-out: Percentage survival at 100um, 100 uM A
Report the value in % with no unit label.

Lab note: Nc1ccc2oc(=O)ccc2c1I gave activity at 100 µM of 75.4

Lab note: Cc1[nH]c2ccccc2c1CC(=O)N[C@@H](Cc1ccccc1)C(=O)N(C)c1ccccc1 gave activity at 100 µM of 87.3

Lab note: Cc1ccccc1NC(=O)Nc1cccc([N+](=O)[O-])c1 gave activity at 100 µM of 95.6

Lab note: N#Cc1cc([N+](=O)[O-])ccc1Oc1ccccc1Cl gave activity at 100 µM of 3.13

Lab note: Nc1nc(O)c2ncn(COC(CO)CO)c2n1 gave activity at 100 µM of 93.4

Lab note: Cc1ccc(C)c(OCCCCCCN2C[C@H](O)[C@@H](O)[C@H](O)[C@H]2CO)c1 gave activity at 100 µM of 83.4

Lab note: CC#C[C@]1(O)CC[C@H]2[C@@H]3CCC4=CC(=O)CCC4=C3[C@@H](c3ccc(N(C)C)cc3)C[C@@]21C gave activity at 100 µM of 84.5

Lab note: CC(C)(C)NC(=O)[C@@H]1C[C@@H]2CCCC[C@@H]2CN1C[C@@H](O)[C@H](Cc1ccccc1)NC(=O)[C@H](CC(N)=O)NC(=O)c1ccc2ccccc2n1 gave activity at 100 µM of 102

Lab note: Cc1ccc(N2CCC(CCOc3ccc(S(C)(=O)=O)cc3)CC2)nn1 gave activity at 100 µM of 52.8

Lab note: O=C(NC1CCCc2c1[nH]c1ccc(Cl)cc21)c1ccccn1 (stereo not drawn) gave activity at 100 µM of -4.95

Lab note: COC1CC2CCC(C)C(O)(O2)C(=O)C(=O)N2CCCCC2C(=O)OC(C(C)CC2CCC(OCCO)C(OC)C2)CC(=O)C(C)/C=C(\C)C(O)C(OC)C(=O)C(C)CC(C)/C=C/C=C/C=C/1C (stereo not drawn) gave activity at 100 µM of 69.2

Lab note: Cc1[nH]c2ccccc2c1CCNCc1ccc(/C=C/C(=O)NO)cc1 gave activity at 100 µM of 85.9

Lab note: COc1ccc2c(c1OC)C(=O)OC2C1c2c(cc3c(c2OC)OCO3)CCN1C (stereo not drawn) gave activity at 100 µM of 72.9

Lab note: COc1ccc(C2CNC(=O)C2)cc1OC1CCCC1 (stereo not drawn) gave activity at 100 µM of 78.1

Lab note: NC1C2CC3CC(C2)CC1C3 (stereo not drawn) gave activity at 100 µM of 78.9

---

Tested on: M. mycetomatis genome strain MM55
Test: CLSI M38-A2 based in vitro susceptibility screening (XTT or resazurin), growth at fixed concentration
Format: cell-based, Madurella mycetomatis
Details: Madurella mycetomatis, 25 uM, replicate C, M. mycetomatis MM55; read-out: Percentage survival at 25um, 25 uM C
Mark n for activity at 25 µM values under 70%, and y for everything at or above.

Problem: Reported activity at 25 µM at or above 70%? Nc1nc(Nc2ccc3nc(-c4ccc(F)cc4)cc(N)c3c2)cc(-c2ccccc2)n1
Solution: n

Problem: Reported activity at 25 µM at or above 70%? Cc1cc(-c2ccccc2)c(C(=O)C(=O)Nc2ccc(N3CCN(c4ncc(F)cn4)CC3)cc2)n1C
Solution: n

Problem: Reported activity at 25 µM at or above 70%? CCCCCOc1ccc(/C=C2\Oc3c(ccc(O)c3O)C2=O)c(O)c1
Solution: y

Problem: Reported activity at 25 µM at or above 70%? CSC[C@H]1CN(Cc2c[nH]c3c(N)ncnc23)C[C@@H]1O
Solution: y

Problem: Reported activity at 25 µM at or above 70%? Cc1onc(-c2ccccc2Cl)c1C(=O)N[C@@H]1C(=O)N2[C@@H]1SC(C)(C)[C@@H]2C(=O)O
Solution: y

Problem: Reported activity at 25 µM at or above 70%? CCCC(=O)OCCc1ccccc1
Solution: y

Problem: Reported activity at 25 µM at or above 70%? O=c1cc(Nc2ccc3ccccc3c2)[nH]c(=O)[nH]1
Solution: y

Problem: Reported activity at 25 µM at or above 70%? CO[C@@]1(NC(=O)Cc2cccs2)C(=O)N2C(C(=O)O)=C(COC(N)=O)CS[C@@H]21
Solution: y

Problem: Reported activity at 25 µM at or above 70%? CC[C@H]1OC(=O)[C@H](C)[C@@H](O[C@H]2C[C@@](C)(OC)[C@@H](O)[C@H](C)O2)[C@H](C)[C@@H](O[C@@H]2O[C@H](C)C[C@H](N(C)C)[C@H]2O)[C@](C)(O)C[C@@H](C)C(=O)[C@H](C)[C@@H](O)[C@]1(C)O
Solution: y

Problem: Reported activity at 25 µM at or above 70%? CC(C)(C)c1cc(CCC(=O)N2CCC2)cc(C(C)(C)C)c1O
Solution: n

Problem: Reported activity at 25 µM at or above 70%? CCCCC(CC)CNC(=N)NC(=N)NCCCCCCNC(=N)NC(=N)NCC(CC)CCCC (stereo not shown) [MMV396785, Alexidine, reference compound]
Solution: n

---

Please respond with reported activity at 100 µM for every item in the list.
Tested on: M. mycetomatis genome strain MM55
Assay: CLSI M38-A2 based in vitro susceptibility screening (XTT or resazurin), growth at fixed concentration
Assay type: cell-based, Madurella mycetomatis
Conditions: Madurella mycetomatis, 100 uM, third replicate column; read-out: Percentage survival at 100um, 100 uM A
Report the value in % with no unit label.

Lab note: Nc1nc(=O)c(Br)c(-c2cccc(Cl)c2)[nH]1 gave activity at 100 µM of 62.2

Lab note: Cc1ccc(C)c(OCCCCCCN2C[C@H](O)[C@@H](O)[C@H](O)[C@H]2CO)c1 gave activity at 100 µM of 80.5

Lab note: CCCCc1ccc(C(=O)O)nc1 gave activity at 100 µM of 69.8

Lab note: CC[N+]1(C/C2=C/CCCCCC2)CCC(NC(=O)C2c3cc(Cl)ccc3Oc3ccc(Cl)cc32)CC1 (stereo not drawn) gave activity at 100 µM of 4.58

Lab note: O=c1[nH]c(=O)n(Cc2cccc(Oc3ccccc3)c2)cc1Nc1ccccc1 gave activity at 100 µM of 47.1

Lab note: NC(=O)c1nccn([C@@H]2O[C@H](CO)[C@@H](O)[C@H]2O)c1=O gave activity at 100 µM of 63.4

Lab note: COc1ccccc1NC(=O)c1ccccc1Sc1ccc([N+](=O)[O-])cc1 gave activity at 100 µM of 64.4

Lab note: OC[C@@H]1CC[C@H](n2cnc3c(O)ncnc32)O1 gave activity at 100 µM of 91.2

Lab note: CCc1ccccc1OCCN1CCCCCC1 gave activity at 100 µM of 60.6

Lab note: O=C1[C@H](CC[C@H](O)c2ccc(F)cc2)[C@@H](c2ccc(O)cc2)N1c1ccc(F)cc1 gave activity at 100 µM of 77.4

Lab note: OCCC#Cc1nc(-c2ccc(F)cc2)c(-c2ccncc2)n1CCCc1ccccc1 gave activity at 100 µM of 61.4

Lab note: CCOC(=O)/C=C/[C@H](C[C@@H]1CCNC1=O)NC(=O)[C@H](CC)n1cccc(NC(=O)c2cc(C)on2)c1=O gave activity at 100 µM of 46.5

---

Please respond with reported IC90 for every item in the list.
Test system: M. mycetomatis MM55
Test: IC50 determination, 2-fold dilution series 16 to 0.03125 μM
Format: cell-based, Madurella mycetomatis
Conditions: Madurella mycetomatis, MM55, mean of three replicates; read-out: IC90 mean

Tested on M. mycetomatis MM55, the item CC(C)Oc1ccc(-c2nc(-c3cccc4c3CC[C@@H]4NCCO)no2)cc1C#N showed IC90 equal to > 25 µM

Tested on M. mycetomatis MM55, the item Cc1cc(O)c2c(c1)C(=O)c1c(I)c(O)c(I)c(O)c1C2=O showed IC90 equal to > 25 µM

Tested on M. mycetomatis MM55, the item FC(F)(F)Oc1ccc(Nc2ccc3cccc(Cl)c3n2)cc1 showed IC90 equal to > 25 µM

---

Test system: M. mycetomatis genome strain MM55
Assay: CLSI M38-A2 based in vitro susceptibility screening (XTT or resazurin), growth at fixed concentration
Type: cell-based, Madurella mycetomatis
Details: Madurella mycetomatis, read-out: Percentage survival at 25um, 25 uM mean
Please respond with reported activity at 25 µM for every item in the list.
Quick note: number first, unit second.

Lab note: CC1(C)[C@H](C(=O)O)N2C(=O)C[C@H]2S1(=O)=O [MMV637945] gave activity at 25 µM of 92.3%

Lab note: Nc1nc2c(Cc3cccnc3)c[nH]c2c(=O)[nH]1 [MMV1782355] gave activity at 25 µM of 90.6%

Lab note: CC1(C)C[C@H]1C(=O)N/C(=C\CCCCSC[C@@H](N)C(=O)O)C(=O)O [MMV1613559] gave activity at 25 µM of 92.2%

Lab note: CCCCc1ccc(C(=O)O)nc1 [MMV001726] gave activity at 25 µM of 91.3%
